Taken from ChEMBL document CHEMBL3351534.

Items are presented alongside their recorded cytotoxicity at 72 h, 50 ug/mL.
# assay: Toxicity against mouse RAW264.7 cells assessed as inhibition of cell viability at 50 ug/mL after 72 hrs by MTT assay
# Assay type: cell-based
# appliedConditions: read-out: INH

{"columns": ["smilesStructure", "u", "cytotoxicity at 72 h, 50 ug/mL"],
 "data": [
  ["Nc1nc(-c2ccc(CCN3CCN(CCCCCN4CCN(c5ccc([N+](=O)[O-])cc5)CC4)CC3)cc2)cs1", "%", 44.6],
  ["Nc1nc(-c2ccc(CCN3CCN(CCCN4CCN(c5ccccc5)CC4)CC3)cc2)cs1", "%", 35.6],
  ["CNc1nc(-c2ccc(CCN3CCN(CCCCN4CCN(c5ccccc5Cl)CC4)CC3)cc2)cs1", "%", 40.4],
  ["Nc1nc(-c2ccc(CCN3CCN(CCCN4CCN(c5ccccn5)CC4)CC3)cc2)cs1", "%", 38.1],
  ["Cc1nc(-c2ccc(CCN3CCN(CCCN4CCN(C(c5ccccc5)c5ccccc5)CC4)CC3)cc2)cs1", "%", 42.8],
  ["Nc1nc(-c2ccc(CCN3CCN(CCCCN4CCN(C(c5ccccc5)c5ccccc5)CC4)CC3)cc2)cs1", "%", 46.4],
  ["CNc1nc(-c2ccc(CCN3CCN(CCCN4CCN(C(c5ccccc5)c5ccccc5)CC4)CC3)cc2)cs1", "%", 31.8],
  ["Nc1nc(-c2ccc(CCN3CCN(CCCN4CCN(C(c5ccccc5)c5ccccc5)CC4)CC3)cc2)cs1", "%", 38.4],
  ["Nc1nc(-c2ccc(CCN3CCN(CCCN4CCN(c5ccc([N+](=O)[O-])cc5)CC4)CC3)cc2)cs1", "%", 36.5]
]}

* * *

The entries below are paired with their reported selectivity ratio.
# assay: Selectivity index, ratio of IC50 for mouse RAW264.7 cells to MIC for Mycobacterium tuberculosis H37Rv
# Format: toxicity
# appliedConditions: read-out: Selectivity Index
measurementKind: selectivity ratio

{"columns": ["smilesStructure", "valueReported"],
 "data": [
  ["Nc1nc(-c2ccc(CCN3CCN(CCCCN4CCN(C(c5ccccc5)c5ccccc5)CC4)CC3)cc2)cs1", "> 15"],
  ["Nc1nc(-c2ccc(CCN3CCN(CCCN4CCN(c5ccccn5)CC4)CC3)cc2)cs1", "> 15"],
  ["Nc1nc(-c2ccc(CCN3CCN(CCCCCN4CCN(c5ccc([N+](=O)[O-])cc5)CC4)CC3)cc2)cs1", "> 7"],
  ["Nc1nc(-c2ccc(CCN3CCN(CCCN4CCN(c5ccc([N+](=O)[O-])cc5)CC4)CC3)cc2)cs1", "> 7"],
  ["Nc1nc(-c2ccc(CCN3CCN(CCCN4CCN(C(c5ccccc5)c5ccccc5)CC4)CC3)cc2)cs1", "> 15"],
  ["Nc1nc(-c2ccc(CCN3CCN(CCCN4CCN(c5ccccc5)CC4)CC3)cc2)cs1", "> 15"],
  ["Cc1nc(-c2ccc(CCN3CCN(CCCN4CCN(C(c5ccccc5)c5ccccc5)CC4)CC3)cc2)cs1", "> 7"],
  ["CNc1nc(-c2ccc(CCN3CCN(CCCN4CCN(C(c5ccccc5)c5ccccc5)CC4)CC3)cc2)cs1", "> 30"],
  ["CNc1nc(-c2ccc(CCN3CCN(CCCCN4CCN(c5ccccc5Cl)CC4)CC3)cc2)cs1", "> 15"]
]}

* * *

Form field: MIC (one value per entry).
# Test system: Mycobacterium tuberculosis
# assay: Antimycobacterial activity against Mycobacterium tuberculosis H37Rv after 5 days by MABA method
# Type: functional
# appliedConditions: 120 h
measurementKind: MIC (µg/mL)

{"columns": ["smilesStructure", "measurementKind", "u", "valueReported"],
 "data": [
  ["CNc1nc(-c2ccc(CCN3CCN(CCCCN4CCN(c5ccccc5Cl)CC4)CC3)cc2)cs1", "MIC", "µg/mL", 3.12],
  ["Nc1nc(-c2ccc(CCN3CCN(CCCN4CCN(C(c5ccccc5)c5ccccc5)CC4)CC3)cc2)cs1", "MIC", "µg/mL", 3.12],
  ["Cc1nc(-c2ccc(CCN3CCN(CCCN4CCN(C(c5ccccc5)c5ccccc5)CC4)CC3)cc2)cs1", "MIC", "µg/mL", 6.25],
  ["CNc1nc(-c2ccc(CCN3CCN(CCCN4CCN(c5ccccc5Cl)CC4)CC3)cc2)cs1", "MIC", "µg/mL", 12.5],
  ["Cc1nc(-c2ccc(CCN3CCN(CCCN4CCN(c5ccc([N+](=O)[O-])cc5)CC4)CC3)cc2)cs1", "MIC", "µg/mL", 50],
  ["Nc1nc(-c2ccc(CCN3CCN(CCCN4CCN(c5ccccn5)CC4)CC3)cc2)cs1", "MIC", "µg/mL", 3.12],
  ["Nc1nc(-c2ccc(CCN3CCN(CCCCCN4CCN(c5ccc([N+](=O)[O-])cc5)CC4)CC3)cc2)cs1", "MIC", "µg/mL", 6.25],
  ["Cc1nc(-c2ccc(CCN3CCN(CCCN4CCN(c5ccccn5)CC4)CC3)cc2)cs1", "MIC", "µg/mL", 50],
  ["CNc1nc(-c2ccc(CCN3CCN(CCCCN4CCN(c5ccccn5)CC4)CC3)cc2)cs1", "MIC", "µg/mL", 25],
  ["Nc1nc(-c2ccc(CCN3CCN(CCCCN4CCN(c5ccc([N+](=O)[O-])cc5)CC4)CC3)cc2)cs1", "MIC", "µg/mL", 12.5],
  ["CNc1nc(-c2ccc(CCN3CCN(CCCCN4CCN(c5ccc([N+](=O)[O-])cc5)CC4)CC3)cc2)cs1", "MIC", "µg/mL", 50],
  ["CO[C@H]1/C=C/O[C@@]2(C)Oc3c(C)c(O)c4c(O)c(c(/C=N/N5CCN(C)CC5)c(O)c4c3C2=O)NC(=O)/C(C)=C\\C=C\\[C@H](C)[C@H](O)[C@@H](C)[C@@H](O)[C@@H](C)[C@H](OC(C)=O)[C@@H]1C", "MIC", "µg/mL", 0.1],
  ["Nc1nc(-c2ccc(CCN3CCN(CCCN4CCN(c5ccccc5)CC4)CC3)cc2)cs1", "MIC", "µg/mL", 3.12],
  ["Nc1nc(-c2ccc(CCN3CCN(CCCCN4CCN(c5ccccn5)CC4)CC3)cc2)cs1", "MIC", "µg/mL", 12.5],
  ["Nc1nc(-c2ccc(CCN3CCN(CCCCN4CCN(C(c5ccccc5)c5ccccc5)CC4)CC3)cc2)cs1", "MIC", "µg/mL", 3.12],
  ["Nc1nc(-c2ccc(CCN3CCN(CCCCN4CCN(c5ccccc5Cl)CC4)CC3)cc2)cs1", "MIC", "µg/mL", 50],
  ["CNc1nc(-c2ccc(CCN3CCN(CCCN4CCN(c5ccc([N+](=O)[O-])cc5)CC4)CC3)cc2)cs1", "MIC", "µg/mL", 12.5],
  ["CNc1nc(-c2ccc(CCN3CCN(CCCN4CCN(c5ccccn5)CC4)CC3)cc2)cs1", "MIC", "µg/mL", 12.5],
  ["Nc1nc(-c2ccc(CCN3CCN(CCCN4CCN(c5ccc([N+](=O)[O-])cc5)CC4)CC3)cc2)cs1", "MIC", "µg/mL", 6.25],
  ["Cc1nc(-c2ccc(CCN3CCN(CCCN4CCN(c5ccccc5)CC4)CC3)cc2)cs1", "MIC", "µg/mL", 25],
  ["NNC(=O)c1ccncc1", "MIC", "µg/mL", 0.05],
  ["CNc1nc(-c2ccc(CCN3CCN(CCCN4CCN(c5ccccc5)CC4)CC3)cc2)cs1", "MIC", "µg/mL", 50],
  ["CNc1nc(-c2ccc(CCN3CCN(CCCCN4CCN(c5ccccc5)CC4)CC3)cc2)cs1", "MIC", "µg/mL", 12.5],
  ["CNc1nc(-c2ccc(CCN3CCN(CCCCN4CCN(C(c5ccccc5)c5ccccc5)CC4)CC3)cc2)cs1", "MIC", "µg/mL", 50],
  ["Nc1nc(-c2ccc(CCN3CCN(CCCN4CCN(c5ccccc5Cl)CC4)CC3)cc2)cs1", "MIC", "µg/mL", 50],
  ["Nc1nc(-c2ccc(CCN3CCN(CCCCN4CCN(c5ccccc5)CC4)CC3)cc2)cs1", "MIC", "µg/mL", 25],
  ["CNc1nc(-c2ccc(CCN3CCN(CCCN4CCN(C(c5ccccc5)c5ccccc5)CC4)CC3)cc2)cs1", "MIC", "µg/mL", 1.56],
  ["Cc1nc(-c2ccc(CCN3CCN(CCCN4CCN(c5ccccc5Cl)CC4)CC3)cc2)cs1", "MIC", "µg/mL", 50]
]}
